# System: K-562 leukemia
# ASSAY OVERVIEW: NCI tumour cell line growth inhibition, 48 h
Let's look at some compounds and their measured TGI.

SMILES DATA: O=[N+]([O-])C(/C=C(\Cl)n1nnc2ccccc21)=C(/Cl)n1nnc2ccccc21
TGI: > 100 µM
//
SMILES DATA: COc1cc(NCc2ccc3oc(=O)c(-c4ccccc4)nc3c2)cc(OC)c1OC
TGI: > 10 µM
//
SMILES DATA: O=C(/C=C\c1ccc(Cl)c(Cl)c1)c1ccc(Cl)cc1Cl
TGI: 26 µM
//
SMILES DATA: CC(C)[C@H]1COC(=O)N1[C@@H]1C(=O)N([C@@H](CCC(=O)N2CCN(C3CCCC3)CC2)C(=O)N[C@@H]2CCCc3ccccc32)[C@@H]1/C=C/c1cccc(Br)c1
TGI: 4.95 µM

###

# Tested on: DMS 273 small cell lung
# ASSAY OVERVIEW: NCI tumour cell line growth inhibition, 48 h
Let's look at some compounds and their measured TGI.

COMPOUND: CCN1c2ccccc2C(C(SC)S(=O)(=O)c2ccc(C)cc2)c2c1[nH]c(=O)n(C)c2=O (stereo not given)
EXPERIMENTAL TARGET: DMS 273 small cell lung
TGI: > 100 µM
--
COMPOUND: C#CC1(O)CCC2C3CCc4cc(Oc5nc(F)nc(-c6c7ccccc7c7sc8ccccc8n67)n5)ccc4C3CC[C@@]21C (stereo not given in full)
EXPERIMENTAL TARGET: DMS 273 small cell lung
TGI: > 100 µM
--
COMPOUND: CC(C)=Cc1cc(C(=O)Nc2ccc(Cl)c(Cl)c2)nc(N)n1
EXPERIMENTAL TARGET: DMS 273 small cell lung
TGI: > 100 µM
--
COMPOUND: [Cl-].[La+3].[O-]/N=C(\c1ccccc1)c1ccccn1.[O-]/N=C(\c1ccccc1)c1ccccn1.[O-]/N=C(\c1ccccc1)c1ccccn1
EXPERIMENTAL TARGET: DMS 273 small cell lung
TGI: > 100 µM
--
COMPOUND: CCCCCCN(CCCCCC)C(=O)Cc1c2n(c3ccccc13)Cc1ccccc1-2
EXPERIMENTAL TARGET: DMS 273 small cell lung
TGI: > 100 µM
--
COMPOUND: CC(C)(C)OC(=O)N[C@H]1CC2(C=C(Cl)C(=O)C(Cl)=C2)OC1=O
EXPERIMENTAL TARGET: DMS 273 small cell lung
TGI: 32.9 µM
--
COMPOUND: O=S1(=O)OCCOS(=O)(=O)C1Br
EXPERIMENTAL TARGET: DMS 273 small cell lung
TGI: > 100 µM
--
COMPOUND: COC(OC)C(C)CC(=O)N(C)C (stereo not given)
EXPERIMENTAL TARGET: DMS 273 small cell lung
TGI: > 100 µM
--
COMPOUND: CC1=NS(=O)(=O)c2ccccc2N1
EXPERIMENTAL TARGET: DMS 273 small cell lung
TGI: > 100 µM
--
COMPOUND: Cn1c2ccccc2c2cc(-c3ccccc3)c3c(c21)C(=O)c1ccccc1C3=O
EXPERIMENTAL TARGET: DMS 273 small cell lung
TGI: 44.9 µM

###

# Test system: UO-31 renal
# ASSAY OVERVIEW: NCI tumour cell line growth inhibition, 48 h; in the data active means GI50 below about 0.43 µM; inactive means the rest
Outcomes: active, inactive

MOLECULE: C=C1NC(=O)C(C(C)CC)NC(=O)C2CSCC(NC(=O)CCC(=O)O)C(=O)NC(Cc3ccccc3)C(=O)NC(C)C(=O)NC(CC(C)CC)C(=O)NC(C(=O)NC(Cc3ccccc3)C(=O)N3CCCC3C(=O)N2)C(C)OC(=O)C(CO)NC(=O)C(C(O)COC)N(C)C(=O)C(C(C)C)NC(=O)C(CC(C)CC)NC1=O (stereo not drawn)
ASSIGNED CATEGORY: inactive

MOLECULE: OCC#Cc1ccccc1C#Cc1ccccc1
ASSIGNED CATEGORY: inactive

MOLECULE: ClCc1cccc(Cn2cnc3ncnc(Cl)c32)c1
ASSIGNED CATEGORY: inactive

MOLECULE: COc1cc2c3c(n(C)c(=O)c2cc1OC)-c1cc2c(cc1/C3=C\CCN)OCO2
ASSIGNED CATEGORY: active

MOLECULE: Cc1cc(/C=C/c2ccc3cc(N(C)C)ccc3[n+]2C)c(C)n1-c1ccccc1
ASSIGNED CATEGORY: inactive

MOLECULE: CC(C)[C@H]1COC(=O)N1[C@@H]1C(=O)N([C@@H](CCC(=O)N2CCN(C3CCCC3)CC2)C(=O)N[C@@H]2CCCc3ccccc32)[C@@H]1/C=C/c1cccc(Br)c1
ASSIGNED CATEGORY: inactive

MOLECULE: CN(C(=O)c1ccc(C(F)(F)F)cc1)c1ccc(Oc2ccc3c(c2)cc(C(=O)N2CCN(Cc4ccc(OC(F)F)cc4)CC2)n3C)nc1
ASSIGNED CATEGORY: inactive

MOLECULE: COc1ccc(-c2nnc(COc3ccc(C(=O)/C=C/c4ccco4)cc3)o2)cc1
ASSIGNED CATEGORY: inactive

###

# Tested on: DU-145 prostate
# ASSAY OVERVIEW: NCI tumour cell line growth inhibition, 48 h
QUANTITY MEASURED: GI50

MOLECULE: ClCc1cccc(Cn2cnc3ncnc(Cl)c32)c1
RESULT: 15.2 µM
//
MOLECULE: COc1cccc(-c2nc(-c3ccc(NC(=O)C(C)C)cc3)[nH]c2-c2ccnc(Br)c2)c1
RESULT: 3.86 µM
//
MOLECULE: COc1cc(/C=C/c2cc(O)c(C(C)=O)c(O)c2)cc2c1O[C@]1(C)CC[C@@H](O)C(C)(C)[C@H]1C2
RESULT: 16.6 µM
//
MOLECULE: CN(C(=O)c1ccc(C(F)(F)F)cc1)c1ccc(Oc2ccc3c(c2)cc(C(=O)N2CCN(Cc4ccc(OC(F)F)cc4)CC2)n3C)nc1
RESULT: > 100 µM
//
MOLECULE: COc1cc2c3c(n(C)c(=O)c2cc1OC)-c1cc2c(cc1/C3=C\CCN)OCO2
RESULT: 0.362 µM
//
MOLECULE: Cc1cc2c(cc1Cl)SC(N(N(C)C)S(=O)(=O)c1ccc(Cl)cc1)=NS2(=O)=O
RESULT: 27.8 µM
//
MOLECULE: COc1ccc([C@H]2[C@@H](F)C(=O)N2c2cc(OC)c(OC)c(OC)c2)cc1F
RESULT: 0.269 µM
//
MOLECULE: CC(=O)[C@@]12O[C@@H]1CC1C3CCC4=CC(O)CCC4(C)C3CCC12C (stereo partly drawn)
RESULT: 15 µM

###

Let's look at some molecules and their measured TGI.
# Test system: HOP-92 NSCLC
# ASSAY OVERVIEW: NCI tumour cell line growth inhibition, 48 h

MOLECULE: COc1ccc(-c2nnc(COc3ccc(C(=O)/C=C/c4ccco4)cc3)o2)cc1
EXPERIMENTAL TARGET: HOP-92 NSCLC
TGI: 16.9 µM
//
MOLECULE: CCOC(=O)c1cc2nc3ccccc3c(=O)n2c2ccccc12
EXPERIMENTAL TARGET: HOP-92 NSCLC
TGI: > 10 µM
//
MOLECULE: COc1ccc2c(c1)/C(=C\c1c(Cl)nc3sc(C)cn13)C(=O)N2
EXPERIMENTAL TARGET: HOP-92 NSCLC
TGI: 23.1 µM
//
MOLECULE: CC(=O)/C(=C\c1cccc([N+](=O)[O-])c1)C(=O)Nc1ccccc1C
EXPERIMENTAL TARGET: HOP-92 NSCLC
TGI: > 100 µM
//
MOLECULE: CCNC(=O)Cc1nc2c(N)ncnc2n1C1OC(CO)C(O)C1O (stereo unspecified)
EXPERIMENTAL TARGET: HOP-92 NSCLC
TGI: > 100 µM
//
MOLECULE: CCCSCC(P(=O)(O)O)P(=O)(O)O
EXPERIMENTAL TARGET: HOP-92 NSCLC
TGI: > 100 µM
//
MOLECULE: CCCCCCOc1ccc(C(=O)NOC)cc1
EXPERIMENTAL TARGET: HOP-92 NSCLC
TGI: > 100 µM
//
MOLECULE: COc1ccc(NC(=O)CC(=O)N2N=C(N3c4ccccc4Sc4ccccc43)CC2c2ccccc2)cc1 (stereo unspecified)
EXPERIMENTAL TARGET: HOP-92 NSCLC
TGI: > 100 µM
//
MOLECULE: O=C(/C=C/c1ccc2c(c1)OCO2)CC(=O)C(=O)c1c[nH]c2ccccc12
EXPERIMENTAL TARGET: HOP-92 NSCLC
TGI: > 100 µM
//
MOLECULE: Cc1ccc(-c2[nH]c(=O)n(C3OC(CO)C(O)C(O)C3O)c(=O)c2C#N)cc1 (stereo unspecified)
EXPERIMENTAL TARGET: HOP-92 NSCLC
TGI: > 100 µM
//
MOLECULE: NC1=NCC(CN2CCOCC2)O1 (stereo unspecified)
EXPERIMENTAL TARGET: HOP-92 NSCLC
TGI: > 100 µM
//
MOLECULE: COc1ccc2c(c1)OCC1Cc3ccccc3OC21 (stereo unspecified)
EXPERIMENTAL TARGET: HOP-92 NSCLC
TGI: > 100 µM
//
MOLECULE: O=[N+]([O-])C(/C=C(\Cl)n1nnc2ccccc21)=C(/Cl)n1nnc2ccccc21
EXPERIMENTAL TARGET: HOP-92 NSCLC
TGI: > 100 µM
//
MOLECULE: N=Nc1c(OC(=O)Nc2cccc(Cl)c2)[nH]c2ccccc12
EXPERIMENTAL TARGET: HOP-92 NSCLC
TGI: 18.1 µM
//
MOLECULE: COc1cc(NS(C)(=O)=O)ccc1Nc1cc(C)[nH]c2ccc3nccc3c12
EXPERIMENTAL TARGET: HOP-92 NSCLC
TGI: > 100 µM
//
MOLECULE: COc1ccc(C2=N/C(=C\c3ccccc3)C(=O)O2)cc1
EXPERIMENTAL TARGET: HOP-92 NSCLC
TGI: > 100 µM
